Measured values drawn from the supplement of paper PMC7125110 for this set.

B1: glmS ribozyme (parent)
chain: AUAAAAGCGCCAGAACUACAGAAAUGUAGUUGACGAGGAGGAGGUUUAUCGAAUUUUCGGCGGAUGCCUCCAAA

variants of: B1; assay: self-cleavage kobs at 160 uM GlcN6P; higher = faster cleavage; RNA array; settings: with glucosamine-6-phosphate
This sample holds only a part of the variants without activity.
Catalogue of variants with associated self-cleavage kobs at 160 uM GlcN6P

Solved entries:
U30C U45G ... < 1e-05 s⁻¹
A64G U65G ... 0.000262 s⁻¹
G7U G35U U46A C67U U69C ... < 1e-05 s⁻¹
G44U U57A U69A ... < 1e-05 s⁻¹
A15U U31A ... 4.67e-05 s⁻¹

Lab note: measured self-cleavage kobs at 160 uM GlcN6P of G41U U45C U54G C67U C71G was < 1e-05 s⁻¹

Lab note: measured self-cleavage kobs at 160 uM GlcN6P of G51U G62U A64C was < 1e-05 s⁻¹

Lab note: measured self-cleavage kobs at 160 uM GlcN6P of A36G G41C A53U was < 1e-05 s⁻¹

Lab note: measured self-cleavage kobs at 160 uM GlcN6P of G9U A52C was < 1e-05 s⁻¹

Lab note: measured self-cleavage kobs at 160 uM GlcN6P of G40A U55A was 0.000151 s⁻¹

Lab note: measured self-cleavage kobs at 160 uM GlcN6P of A12C G66C C70A was 0.000157 s⁻¹
